Target: SHP2-C SH2
Experiment: SH2 binding enrichment of the phosphorylated peptide, bacterial display (enrichment ratio); higher = better substrate or ligand; peptides without Tyr show the background;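 further: peptide library displayed on the E. coli surface as eCPX fusions, selected cells deep-sequenced, score is each peptide's frequency after selection divided by its frequency in the input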
Is SH2 binding enrichment at least 0.9? Then label 1. If not, label 0.

seq text | assigned label
IKIMGYFIRTI [IDS_Y490_S491F] | label 1
RELGEYPLAEF [ALDH1A3_Y492_A493P_YF] | label 0
IQRSLYDCPAS [PDGFRA_Y762_R764C] | label 1
FSDQVYRQHRK [TH_Y230_R233H] | label 0
LGPDGYSTVDR [ARVCF_Y901] | label 1
HPWPQYTTRAP [FNDC1_Y1281] | label 1
CTTIHFNYMCN [TP53_Y234_Y234F] | label 1
NYYDLYGGEKF [PTPN11_Y66_D61N] | label 0
TNRSFYFKPSL [NUP153_Y382_V381F] | label 0
FSNPAYYVLEG [INPPL1_Y986_N982S] | label 1
QPAGNYSLSSV [ARFGAP3_Y473] | label 1
DRLASYLDKAR [KRT14_Y129_V133A] | label 0
RRGLLYDSDEE [MCM2_Y137] | label 0
TLQNMYGCDVG [HLA-B_Y123_S121N] | label 0
GHNNVYISEHV [GRIN2A_Y1423_D1421N] | label 0
PTTKTYFPHFD [HBA1_Y43] | label 1
QEIATYRRLQE [KRT14_Y415_L419Q] | label 1
QELRRYLKSGV [MICA_Y194] | label 0
EVESPYEVRDF [GIGYF2_Y1168_H1171R_YF] | label 0
SISLKYEGRVY [ABL1_Y167_R166K] | label 0
FSNKLYFQLEQ [PDPR_Y109_YF] | label 0
HYPDVYAWEQL [ALX3_Y181_R183W] | label 1
AFPVSYSSSGA [RET_Y687] | label 0
MSSHHCDYKKY [ZNF445_Y428_Y428C] | label 0
TKEPKYEGAGS [KIAA1210_Y1615] | label 0
GEEIKDMLWLS [OTC_Y55_Y55D] | label 0
RWHEGYRQTPR [CD44_Y412_K417R] | label 1

###

Biological target: Grb2 SH2 (UniProt P62993)
Sequence (P62993 whole entry, looked up): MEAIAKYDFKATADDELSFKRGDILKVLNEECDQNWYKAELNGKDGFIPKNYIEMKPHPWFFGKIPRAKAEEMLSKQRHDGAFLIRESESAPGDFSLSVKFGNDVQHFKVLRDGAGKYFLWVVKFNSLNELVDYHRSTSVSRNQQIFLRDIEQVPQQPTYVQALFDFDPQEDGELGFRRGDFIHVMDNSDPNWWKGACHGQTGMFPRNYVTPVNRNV
Assay: SH2 binding enrichment of the phosphorylated peptide, bacterial display (enrichment ratio); higher = better substrate or ligand; peptides without Tyr show the background
parameter: SH2 binding enrichment

seq text | study system | parameter | recorded value
MPLTEYLKRIK [CNGB3_Y200] | Grb2 SH2 (UniProt P62993) | SH2 binding enrichment | 1.01
KGNMFYENSFA [EGFR_Y113_R108K_YF] | Grb2 SH2 (UniProt P62993) | SH2 binding enrichment | 19.5
WQQQSYLGSGI [CTNNB1_Y30_D32G] | Grb2 SH2 (UniProt P62993) | SH2 binding enrichment | 0.858
LLAGLYRGQAL [FGFR4_Y390] | Grb2 SH2 (UniProt P62993) | SH2 binding enrichment | 0.63
HVIKFYGACSQ [RET_Y791_L790F] | Grb2 SH2 (UniProt P62993) | SH2 binding enrichment | 0.833
GSETPYMDRTP [ESS2_Y335_V336M] | Grb2 SH2 (UniProt P62993) | SH2 binding enrichment | 1.05
PFRQWYESHFA [RPS8_Y113_YF] | Grb2 SH2 (UniProt P62993) | SH2 binding enrichment | 1.22
SGPRRYTIATL [TTR_Y125_A129T] | Grb2 SH2 (UniProt P62993) | SH2 binding enrichment | 0.803
RPDSPYSRPHD [DOK2_Y271] | Grb2 SH2 (UniProt P62993) | SH2 binding enrichment | 0.729
KFLENYLNCLL [PLD2_Y169_R172C_YF] | Grb2 SH2 (UniProt P62993) | SH2 binding enrichment | 1.45
PFTRNYYVWAV [CYBA_Y87_R90W] | Grb2 SH2 (UniProt P62993) | SH2 binding enrichment | 1.32
HSSPVYVGRVV [TGM2_Y219_R214H] | Grb2 SH2 (UniProt P62993) | SH2 binding enrichment | 0.806
RGMVMYTSKDR [ZG16B_Y136] | Grb2 SH2 (UniProt P62993) | SH2 binding enrichment | 0.697
PELINYHQHYS [BTK_Y361_N365Y] | Grb2 SH2 (UniProt P62993) | SH2 binding enrichment | 1.08

Every entry's value here was drawn from the supplement of paper PMC10065799.
